Test system: Mycobacterium tuberculosis Erdman (autoluminescent)
Assay: FIC50 (Loewe) at 50% inhibition (log2); higher = more antagonistic
Conditions: in vitro model: dormancy (butyrate + nitrate, low O2); time point: constant (~7 days, model-specific)
Assay Metric: FIC50
Answers are plain numbers.

Take a look at these entries with their results.
COc1nc2ccc(Br)cc2cc1[C@@H](c1ccccc1)[C@@](O)(CCN(C)C)c1cccc2ccccc12 [bedaquiline] + COc1c(N2C[C@@H]3CCCN[C@@H]3C2)c(F)cc2c(=O)c(C(=O)O)cn(C3CC3)c12 [moxifloxacin] ... 0.814
CC(C)/N=c1\cc2n(-c3ccc(Cl)cc3)c3ccccc3nc-2cc1Nc1ccc(Cl)cc1 [clofazimine] + CO[C@H]1/C=C/O[C@@]2(C)Oc3c(C)c(O)c4c(O)c(c(/C=N/N5CCN(C6CCCC6)CC5)c(O)c4c3C2=O)NC(=O)/C(C)=C\C=C\[C@H](C)[C@H](O)[C@@H](C)[C@@H](O)[C@@H](C)[C@H](OC(C)=O)[C@@H]1C [rifapentine] ... 0.121

Now look at this entry.
Give recorded FIC50 with Mycobacterium tuberculosis Erdman (autoluminescent) for the following compound: O=[N+]([O-])c1cn2c(n1)OC[C@@H](OCc1ccc(OC(F)(F)F)cc1)C2 [pretomanid] + CO[C@H]1/C=C/O[C@@]2(C)Oc3c(C)c(O)c4c(O)c(c(/C=N/N5CCN(C6CCCC6)CC5)c(O)c4c3C2=O)NC(=O)/C(C)=C\C=C\[C@H](C)[C@H](O)[C@@H](C)[C@@H](O)[C@@H](C)[C@H](OC(C)=O)[C@@H]1C [rifapentine] 0.527

----------
Kindly state Einf for each of the entries shown.
Test system: Mycobacterium tuberculosis Erdman (autoluminescent)
Experiment: Einf, fitted maximum growth inhibition of three-drug combination (fraction); higher = stronger maximal inhibition
Details: in vitro model: cholesterol-high 0.2 mM; time point: constant (~7 days, model-specific)
Give bare numbers.

COc1nc2ccc(Br)cc2cc1[C@@H](c1ccccc1)[C@@](O)(CCN(C)C)c1cccc2ccccc12 [bedaquiline] + CC[C@@H](CO)NCCN[C@@H](CC)CO [ethambutol] + CO[C@H]1/C=C/O[C@@]2(C)Oc3c(C)c(O)c4c(O)c(c(/C=N/N5CCN(C)CC5)c(O)c4c3C2=O)NC(=O)/C(C)=C\C=C\[C@H](C)[C@H](O)[C@@H](C)[C@@H](O)[C@@H](C)[C@H](OC(C)=O)[C@@H]1C [rifampicin] ... 0.972

Give recorded Einf with Mycobacterium tuberculosis Erdman (autoluminescent) for the following compound: COc1nc2ccc(Br)cc2cc1[C@@H](c1ccccc1)[C@@](O)(CCN(C)C)c1cccc2ccccc12 [bedaquiline] + CC(C)/N=c1\cc2n(-c3ccc(Cl)cc3)c3ccccc3nc-2cc1Nc1ccc(Cl)cc1 [clofazimine] + O=[N+]([O-])c1cn2c(n1)OC[C@@H](OCc1ccc(OC(F)(F)F)cc1)C2 [pretomanid] 0.94

----------
Kindly state GRinf for each of the entries shown.
Tested on: Mycobacterium tuberculosis Erdman (autoluminescent)
Assay: GRinf, maximum normalised growth rate inhibition (three-drug combination) (unitless (-1 to 1)); higher = less effect (negative = killing)
Conditions: in vitro model: dormancy (butyrate + nitrate, low O2); time point: terminal (~4-5 doublings, model-specific)
One number for each entry.

CC[C@@H](CO)NCCN[C@@H](CC)CO [ethambutol] + NC(=O)c1cnccn1 [pyrazinamide] + CO[C@H]1/C=C/O[C@@]2(C)Oc3c(C)c(O)c4c(O)c(c(/C=N/N5CCN(C6CCCC6)CC5)c(O)c4c3C2=O)NC(=O)/C(C)=C\C=C\[C@H](C)[C@H](O)[C@@H](C)[C@@H](O)[C@@H](C)[C@H](OC(C)=O)[C@@H]1C [rifapentine] ... -0.233
COc1nc2ccc(Br)cc2cc1[C@@H](c1ccccc1)[C@@](O)(CCN(C)C)c1cccc2ccccc12 [bedaquiline] + CC(C)/N=c1\cc2n(-c3ccc(Cl)cc3)c3ccccc3nc-2cc1Nc1ccc(Cl)cc1 [clofazimine] + NNC(=O)c1ccncc1 [isoniazid] ... -0.0967
CC(C)/N=c1\cc2n(-c3ccc(Cl)cc3)c3ccccc3nc-2cc1Nc1ccc(Cl)cc1 [clofazimine] + CC(=O)NC[C@H]1CN(c2ccc(N3CCOCC3)c(F)c2)C(=O)O1 [linezolid] + CO[C@H]1/C=C/O[C@@]2(C)Oc3c(C)c(O)c4c(O)c(c(/C=N/N5CCN(C)CC5)c(O)c4c3C2=O)NC(=O)/C(C)=C\C=C\[C@H](C)[C@H](O)[C@@H](C)[C@@H](O)[C@@H](C)[C@H](OC(C)=O)[C@@H]1C [rifampicin] ... -0.148

For every listed record, write down its GRinf.
1. CC(=O)NC[C@H]1CN(c2ccc(N3CCOCC3)c(F)c2)C(=O)O1 [linezolid] + NC(=O)c1cnccn1 [pyrazinamide] + CO[C@H]1/C=C/O[C@@]2(C)Oc3c(C)c(O)c4c(O)c(c(/C=N/N5CCN(C6CCCC6)CC5)c(O)c4c3C2=O)NC(=O)/C(C)=C\C=C\[C@H](C)[C@H](O)[C@@H](C)[C@@H](O)[C@@H](C)[C@H](OC(C)=O)[C@@H]1C [rifapentine]
2. CC[C@@H](CO)NCCN[C@@H](CC)CO [ethambutol] + NC(=O)c1cnccn1 [pyrazinamide] + CO[C@H]1/C=C/O[C@@]2(C)Oc3c(C)c(O)c4c(O)c(c(/C=N/N5CCN(C)CC5)c(O)c4c3C2=O)NC(=O)/C(C)=C\C=C\[C@H](C)[C@H](O)[C@@H](C)[C@@H](O)[C@@H](C)[C@H](OC(C)=O)[C@@H]1C [rifampicin]

1. -0.12
2. -0.155

----------
Tested on: Mycobacterium tuberculosis Erdman (autoluminescent)
Test: FIC50 (Loewe) at 50% inhibition (log2); higher = more antagonistic
Settings: in vitro model: cholesterol 0.05 mM; time point: terminal (~4-5 doublings, model-specific)
Assay Metric: FIC50
One number for each entry.

CC(=O)NC[C@H]1CN(c2ccc(N3CCOCC3)c(F)c2)C(=O)O1 [linezolid] + CO[C@H]1/C=C/O[C@@]2(C)Oc3c(C)c(O)c4c(O)c(c(/C=N/N5CCN(C)CC5)c(O)c4c3C2=O)NC(=O)/C(C)=C\C=C\[C@H](C)[C@H](O)[C@@H](C)[C@@H](O)[C@@H](C)[C@H](OC(C)=O)[C@@H]1C [rifampicin] ... -0.194

Now look at this entry.
I am curious: what FIC50 value has been reported for NNC(=O)c1ccncc1 [isoniazid] + CO[C@H]1/C=C/O[C@@]2(C)Oc3c(C)c(O)c4c(O)c(c(/C=N/N5CCN(C6CCCC6)CC5)c(O)c4c3C2=O)NC(=O)/C(C)=C\C=C\[C@H](C)[C@H](O)[C@@H](C)[C@@H](O)[C@@H](C)[C@H](OC(C)=O)[C@@H]1C [rifapentine] ? 0.122

----------
Test system: Mycobacterium tuberculosis Erdman (autoluminescent)
Assay: Einf, fitted maximum growth inhibition of three-drug combination (fraction); higher = stronger maximal inhibition
Settings: in vitro model: valerate; time point: terminal (~4-5 doublings, model-specific)
Kindly state Einf for each of the entries shown.
Answers are plain numbers.

NNC(=O)c1ccncc1 [isoniazid] + CO[C@H]1/C=C/O[C@@]2(C)Oc3c(C)c(O)c4c(O)c(c(/C=N/N5CCN(C6CCCC6)CC5)c(O)c4c3C2=O)NC(=O)/C(C)=C\C=C\[C@H](C)[C@H](O)[C@@H](C)[C@@H](O)[C@@H](C)[C@H](OC(C)=O)[C@@H]1C [rifapentine] + CO[C@H]1/C=C/O[C@@]2(C)Oc3c(C)c(O)c4c(O)c(c(/C=N/N5CCN(C)CC5)c(O)c4c3C2=O)NC(=O)/C(C)=C\C=C\[C@H](C)[C@H](O)[C@@H](C)[C@@H](O)[C@@H](C)[C@H](OC(C)=O)[C@@H]1C [rifampicin] ... 0.941

Now look at this entry.
I am curious: what Einf value has been reported for O=[N+]([O-])c1cn2c(n1)OC[C@@H](OCc1ccc(OC(F)(F)F)cc1)C2 [pretomanid] + NC(=O)c1cnccn1 [pyrazinamide] + CO[C@H]1/C=C/O[C@@]2(C)Oc3c(C)c(O)c4c(O)c(c(/C=N/N5CCN(C)CC5)c(O)c4c3C2=O)NC(=O)/C(C)=C\C=C\[C@H](C)[C@H](O)[C@@H](C)[C@@H](O)[C@@H](C)[C@H](OC(C)=O)[C@@H]1C ? 0.933

----------
Test system: Mycobacterium tuberculosis Erdman (autoluminescent)
Test: AUC25, normalised area under dose response up to IC25 (fraction (0-1)); higher = more potent at low dose
Conditions: in vitro model: dormancy (butyrate + nitrate, low O2); time point: constant (~7 days, model-specific)
Assay Metric: AUC25
Give bare numbers.

Take a look at these entries with their results.
COc1c(N2C[C@@H]3CCCN[C@@H]3C2)c(F)cc2c(=O)c(C(=O)O)cn(C3CC3)c12 [moxifloxacin] + O=[N+]([O-])c1cn2c(n1)OC[C@@H](OCc1ccc(OC(F)(F)F)cc1)C2 ... 0.0724
NNC(=O)c1ccncc1 [isoniazid] + COc1c(N2C[C@@H]3CCCN[C@@H]3C2)c(F)cc2c(=O)c(C(=O)O)cn(C3CC3)c12 [moxifloxacin] ... 0.076
COc1nc2ccc(Br)cc2cc1[C@@H](c1ccccc1)[C@@](O)(CCN(C)C)c1cccc2ccccc12 [bedaquiline] + CC[C@@H](CO)NCCN[C@@H](CC)CO [ethambutol] ... 0.139

Now look at this entry.
I am curious: what AUC25 value has been reported for CC(C)/N=c1\cc2n(-c3ccc(Cl)cc3)c3ccccc3nc-2cc1Nc1ccc(Cl)cc1 [clofazimine] + CO[C@H]1/C=C/O[C@@]2(C)Oc3c(C)c(O)c4c(O)c(c(/C=N/N5CCN(C)CC5)c(O)c4c3C2=O)NC(=O)/C(C)=C\C=C\[C@H](C)[C@H](O)[C@@H](C)[C@@H](O)[C@@H](C)[C@H](OC(C)=O)[C@@H]1C [rifampicin] ? 0.0883
